# system_tested: CDK5/GST-p25 (Homo sapiens)
# Construct: The final construct, encoding for full-length human CDK5; made in house; host or cells: Sf21 insect cells (baculovirus co-infection)
# assay_method_text: Inhibition of CDK5/GST-p25 kinase activity (ELISA with time-resolved fluorescence readout)
# Format: biochemical
# experimental_conditions: class symbols
pIC50: −log10 of the molar value.
Examples of compounds with documented pIC50 follow.

Examples with their reported pIC50 follow.
Reported pIC50 for CCOCCNc1nc2c(c(C3C(=O)Nc4ccc(C#N)cc43)n1)CCC2 (stereo not drawn) [Example 344] was 5.52 to 6.52

Reported pIC50 for N#Cc1ccc2c(c1)C(c1ncnc3c1cnn3C1CCCC1)C(=O)N2 (stereo not drawn) [Example 55] was < 5.00

New cases:
Reported pIC50 for CN(C)CCNc1nc(C2C(=O)Nc3ccc(C#N)cc32)c2cn(C3CCCC3)nc2n1 (stereo not drawn) [Example 119] was 5.52 to 6.52

Reported pIC50 for N#Cc1ccc2c(c1)C(c1nc(N3CCN(CCN4CCCC4)CC3)nc3nn(C4CCCC4)cc13)C(=O)N2 (stereo not drawn) [Example 127] was < 5.00

Reported pIC50 for CCCn1cc2c(C3C(=O)Nc4ccc(Br)cc43)ncnc2n1 (stereo not drawn) [Example 97] was > 6.52

Reported pIC50 for CCCCCn1cc2c(C3C(=O)Nc4ccc(C(F)(F)F)cc43)nc(NCCCN)nc2n1 (stereo not drawn) [Example 289] was > 6.52

Reported pIC50 for C=CCNc1nc(C2C(=O)Nc3ccc(Br)cc32)c2cn(C)nc2n1 (stereo not drawn) [Example 301] was > 6.52

Reported pIC50 for N#Cc1ccc2c(c1)C(c1nc(NCCN3CCOCC3)nc3c1CCC3)C(=O)N2 (stereo not drawn) [Example 341] was 5.52 to 6.52

Reported pIC50 for O=C1Nc2ccc(Br)cc2C1c1nc(NCc2ccccn2)nc2c1CCC2 (stereo not drawn) [Example 339] was < 5.00

---

# system_tested: CDK5/GST-p25 (Homo sapiens, UniProt Q00535)
# Construct: The final construct, encoding for full-length human CDK5; made in house; host or cells: Sf21 insect cells (baculovirus co-infection)
# Sequence (Q00535 whole entry): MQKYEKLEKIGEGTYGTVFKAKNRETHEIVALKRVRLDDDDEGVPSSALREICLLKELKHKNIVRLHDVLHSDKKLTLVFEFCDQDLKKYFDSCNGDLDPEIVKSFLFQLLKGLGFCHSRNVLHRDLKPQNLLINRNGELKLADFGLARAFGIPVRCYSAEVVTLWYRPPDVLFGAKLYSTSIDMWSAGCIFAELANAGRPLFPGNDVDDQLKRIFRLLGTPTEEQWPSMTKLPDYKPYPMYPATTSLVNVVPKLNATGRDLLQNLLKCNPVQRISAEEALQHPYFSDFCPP
# Sequence (Q15078 108-307 partner limits assumed): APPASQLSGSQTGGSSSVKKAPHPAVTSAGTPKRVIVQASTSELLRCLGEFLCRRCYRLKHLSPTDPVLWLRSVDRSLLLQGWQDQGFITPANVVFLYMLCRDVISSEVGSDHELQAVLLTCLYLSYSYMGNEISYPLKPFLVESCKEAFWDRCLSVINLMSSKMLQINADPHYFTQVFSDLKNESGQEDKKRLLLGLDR
# assay_method_text: Inhibition of CDK5/GST-p25 kinase activity (ELISA with time-resolved fluorescence readout)
# Assay type: biochemical
# experimental_conditions: class symbols
pIC50: −log10 of the molar value.
result_type: pIC50

Examples with their reported pIC50 follow.
Reported pIC50 for [N-]=[N+]=NCCCn1cc2c(C3C(=O)Nc4ccc(Br)cc43)ncnc2n1 (stereo not shown) [Example 89] was > 6.52

Reported pIC50 for CCCn1cc2c(C3C(=O)Nc4ccc(Br)cc43)nc(NCCCN3CCOCC3)nc2n1 (stereo not shown) [Example 203] was > 6.52

Reported pIC50 for N#Cc1ccc2c(c1)C(c1nc(N(CCO)CCO)nc3nn(C4CCCC4)cc13)C(=O)N2 (stereo not shown) [Example 168] was > 6.52

New cases:
Reported pIC50 for CCOCCn1cc2c(C3C(=O)Nc4ccc(Cl)cc43)nc(NCc3cccnc3)nc2n1 (stereo not shown) [Example 213] was > 6.52

Reported pIC50 for O=C1Nc2ccc(C(F)(F)F)cc2C1c1nc(NCCc2ccccn2)nc2nn(C3CCCC3)cc12 (stereo not shown) [Example 247] was < 5.00

Reported pIC50 for CC(C)Cn1cc2c(C3C(=O)Nc4ccc(Br)cc43)nc(Cl)nc2n1 (stereo not shown) [Example 262] was < 5.00

---

Examples of molecules with documented melting point follow.

Reported melting point for N#Cc1ccc2c(c1)NC(=O)C2c1ncnc2c1cnn2C1CCCC1 (stereo not shown) [Example 63] was 335 to 338 °C

Reported melting point for COCCn1cc2c(C3C(=O)Nc4ccc(Br)cc43)nc(NCc3cccnc3)nc2n1 (stereo not shown) [Example 232] was 300 to 301 °C

Reported melting point for COCCn1cc2c(C3C(=O)Nc4ccc(Br)cc43)nc(NC[C@H](C)O)nc2n1 (stereo partly shown) [Example 230] was > 300 °C

Reported melting point for CCCn1cc2c(C3C(=O)Nc4ccc(Br)cc43)nc(Cl)nc2n1 (stereo not shown) [Example 188] was > 300 °C

Reported melting point for CC(C)CNc1nc(C2C(=O)Nc3ccc(C#N)cc32)c2cn(C3CCCC3)nc2n1 (stereo not shown) [Example 165] was 297 to 298.5 °C

Reported melting point for O=C1Nc2ccc(F)cc2C1c1ncnc2c1cnn2C1CCCCC1 (stereo not shown) [Example 72] was 282 to 286 °C

New cases:
Reported melting point for CC(C)Cn1cc2c(C3C(=O)Nc4ccc(Br)cc43)nc(NCCCN(C)C)nc2n1 (stereo not shown) [Example 269] was 250.5 to 254 °C

Reported melting point for CCOCCn1cc2c(C3C(=O)Nc4ccc(Cl)cc43)nc(NC[C@@H](C)O)nc2n1 (stereo partly shown) [Example 218] was > 300 °C

Reported melting point for CCCn1cc2c(C3C(=O)Nc4ccc(Br)cc43)nc(NCCN(C)C)nc2n1 (stereo not shown) [Example 197] was 270 to 274 °C

Reported melting point for CC(C)Cn1cc2c(C3C(=O)Nc4ccc(Cl)cc43)nc(NCCN(C)C)nc2n1 (stereo not shown) [Example 270] was 264 to 265.5 °C

Reported melting point for CC(=O)NCCNc1nc(C2C(=O)Nc3ccccc32)c2cn(C3CCCC3)nc2n1 (stereo not shown) [Example 158] was 238 to 240 °C

Reported melting point for Cn1cc2c(C3C(=O)Nc4ccc(Br)cc43)ncnc2n1 (stereo not shown) [Example 82] was 360 to 365 °C

Reported melting point for O=C1Nc2ccc(C(F)(F)F)cc2C1c1nc(NCCc2cccnc2)nc2nn(C3CCCC3)cc12 (stereo not shown) [Example 160] was 278 to 280 °C

Reported melting point for N#Cc1ccc2c(c1)NC(=O)C2c1ncnc2nn(C3CCCC3)cc12 (stereo not shown) [Example 38] was 340 to 344 °C

Reported melting point for CC(=O)NCCNc1nc(C2C(=O)Nc3ccc(Cl)cc32)c2cn(C3CCCC3)nc2n1 (stereo not shown) [Example 276] was 209 to 226 °C

---

# system_tested: CDK5/GST-p25 (Homo sapiens, UniProt Q00535)
# Construct: The final construct, encoding for full-length human CDK5; made in house; host or cells: Sf21 insect cells (baculovirus co-infection)
# assay_method_text: Inhibition of CDK5/GST-p25 kinase activity (ELISA with time-resolved fluorescence readout)
# Type: biochemical
# experimental_conditions: class symbols
Structures can show the parent of a compound that is named as a salt.
result_type: IC50

Examples with their reported IC50 follow.
Reported IC50 for CCCn1cc2c(C3C(=O)Nc4ccc(Br)cc43)nc(NCCNC)nc2n1 (stereo not shown) [Example 365, hydrochloride salt] was 0.3 to 3 µM

Reported IC50 for CN(C)CCNc1nc2c(c(C3C(=O)Nc4ccc(Cl)cc43)n1)CCC2 (stereo not shown) was > 10 µM

Reported IC50 for COc1ccc(Nc2nc3c(c(C4C(=O)Nc5ccc(C#N)cc54)n2)CCC3)cn1 (stereo not shown) was > 10 µM

Now let's try a different one.
Reported IC50 for O=C1Nc2ccc(Cl)cc2C1c1nc(NCc2ccc(C(F)(F)F)nc2)nc2c1CCC2 (stereo not shown) was > 10 µM

---

# system_tested: His6-GSK-3β (Homo sapiens)
# Construct: made in house; host or cells: Sf21 insect cells (baculovirus)
# assay_method_text: Inhibition of His6-GSK-3β kinase activity (ELISA-based format, time-resolved fluorescence readout)
# Type: biochemical
# experimental_conditions: class symbols; read-out: GSK3β IC50
pIC50: −log10 of the molar value.
result_type: pIC50

Examples with their reported pIC50 follow.
Record for CCCn1cc2c(C3C(=O)Nc4ccc(Br)cc43)nc(NC[C@H](C)O)nc2n1 (stereo partly shown) under target or system His6-GSK-3β (Homo sapiens): pIC50 reported as > 6.52

Record for CNCCCNc1nc(C2C(=O)Nc3ccc(Br)cc32)c2cn(C)nc2n1 (stereo not shown) under target or system His6-GSK-3β (Homo sapiens): pIC50 reported as 5.52 to 6.52

New cases:
Record for CCOCCNc1nc2c(c(C3C(=O)Nc4ccc(F)cc43)n1)CCC2 (stereo not shown) under target or system His6-GSK-3β (Homo sapiens): pIC50 reported as < 5.00

Record for O=C1Nc2ccc(C(F)(F)F)cc2C1c1nc(NCc2cccnc2)nc2nn(C3CCCC3)cc12 (stereo not shown) under target or system His6-GSK-3β (Homo sapiens): pIC50 reported as > 6.52

---

# system_tested: His6-GSK-3β (Homo sapiens, UniProt P49841)
# Construct: made in house; host or cells: Sf21 insect cells (baculovirus)
# Sequence (P49841 2-419): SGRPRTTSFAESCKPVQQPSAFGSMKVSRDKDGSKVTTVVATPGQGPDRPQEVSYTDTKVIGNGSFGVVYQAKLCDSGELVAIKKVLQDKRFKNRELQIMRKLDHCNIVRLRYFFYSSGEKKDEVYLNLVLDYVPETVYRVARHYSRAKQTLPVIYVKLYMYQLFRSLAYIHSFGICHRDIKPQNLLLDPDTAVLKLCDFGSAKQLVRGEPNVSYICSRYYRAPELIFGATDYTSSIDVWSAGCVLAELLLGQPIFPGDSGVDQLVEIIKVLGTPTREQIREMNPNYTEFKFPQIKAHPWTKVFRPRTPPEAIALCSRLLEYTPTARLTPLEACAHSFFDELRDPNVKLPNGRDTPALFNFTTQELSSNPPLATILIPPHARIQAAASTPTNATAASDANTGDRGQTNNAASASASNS
# assay_method_text: Inhibition of His6-GSK-3β kinase activity (ELISA-based format, time-resolved fluorescence readout)
# Assay type: biochemical
# experimental_conditions: class symbols; read-out: GSK3β IC50
# Protocol: Full-length GSK-3β was amplified from a sequence-verified I.M.A.G.E. EST acquired from Research Genetics (Invitrogen, Clone ID# CSODB003YJ02). […] Inhibitory effects of compounds on baculoviral GSK-3β kinase activity were evaluated using an ELISA-based format in a 384-well FluoroNunc Maxisorp plate (Cat # 460372) with a time-resolved fluorescence readout. […] Inhibition data were analyzed using ActivityBase and IC50 curves were generated using XLFit 3.0.5.
pIC50: −log10 of the molar value.
Examples of compounds with documented pIC50 follow.

Examples with their reported pIC50 follow.
Reported pIC50 for C[C@H](O)CNc1nc(C2C(=O)Nc3ccc(Cl)cc32)c2cn(C3CCCC3)nc2n1 (stereo partly drawn) was > 6.52

Reported pIC50 for CCCn1cc2c(C3C(=O)Nc4ccc(C)cc43)nc(NCCN(C)C)nc2n1 (stereo not drawn) was 5.52 to 6.52

Reported pIC50 for CC(C)Cn1cc2c(C3C(=O)Nc4ccc(Br)cc43)nc(NCCN3CCOCC3)nc2n1 (stereo not drawn) was > 6.52

Reported pIC50 for CCOCCn1cc2c(C3C(=O)Nc4ccc(Br)cc43)nc(NC[C@@H](C)O)nc2n1 (stereo partly drawn) was > 6.52

Reported pIC50 for O=C1Nc2cc(F)ccc2C1c1ncnc2c1cnn2C1CCCCC1 (stereo not drawn) was < 5.00

Reported pIC50 for CC(C)Cn1cc2c(C3C(=O)Nc4ccc(Cl)cc43)nc(NCCN(C)C)nc2n1 (stereo not drawn) was > 6.52

Reported pIC50 for O=C1Nc2ccc(Cl)cc2C1c1ncnc2nn(C3CCCCC3)cc12 (stereo not drawn) was > 6.52

Reported pIC50 for O=C1Nc2ccc([N+](=O)[O-])cc2C1c1ncnc2nn(C3CCCC3)cc12 (stereo not drawn) was > 6.52

New cases:
Reported pIC50 for COc1ccc2c(c1)C(c1ncnc3nn(C4CCCCC4)cc13)C(=O)N2 (stereo not drawn) was 5.52 to 6.52
